Test system: HCT-116
experiment: Antiproliferative activity against MTAP deleted human HCT-116 cells assessed as inhibition of cell viability by luminescence based cell titer-glo assay
Format: functional
For each record, write down the corresponding IC50.
One number for each entry, in nM.

CN(C(=O)c1ccc2nc(N)c3c(c2c1)COC3)[C@@H]1CCN(c2ccc(C#N)cc2)C1: 95
N#Cc1cccc(N2C[C@@H]3C[C@H]2CN3C(=O)c2ccc3nc(N)c4c(c3c2)COC4)c1: 3680

# ---- query compound ----
Enquiry: Form field - read-out: IC50; system: HCT-116; submitted item: Nc1nc2ccc(C(=O)N3C[C@H]4C[C@@H]3CN4c3ccccc3)cc2c2c1COC2
Return: 2450

* * *

subject.of.test: Protein arginine N-methyltransferase 5 (Homo sapiens)
experiment: Inhibition of PRMT5 (unknown origin)
metric: pIC50
One number for each entry, as −log10 of the molar value.

Enquiry: Any idea what pIC50 was measured for CN(C(=O)c1cc2c3c(c(N)nc2cc1F)COC3)[C@@H]1CCN(c2ccc(C#N)cc2)C1 ?
Return: 7.17

* * *

experiment: AUC (0 to 24 hrs) in male Sprague-Dawley rat at 5 mg/kg, po or 1 mg/kg, iv measured upto 24 hrs
Assay type: ADME, organism-based
conditions: in vivo
For each record, write down the corresponding AUC.
Answers are plain numbers, in ng·h/mL.

CN(C(=O)c1cc2c3c(c(N)nc2cc1F)COC3)[C@@H]1CCN(c2ccc(C#N)cc2)C1: 5610

# ---- query compound ----
Enquiry: Any idea what AUC was measured for Cc1cc2nc(N)c3c(c2cc1C(=O)N(C)[C@@H]1CCN(c2ccc(C#N)cc2)C1)COC3 ?
Return: 2310

* * *

For each record, write down the corresponding bioavailability.
experiment: Oral bioavailability in male Sprague-Dawley rat at 5 mg/kg or 1 mg/kg, iv measured upto 24 hrs
Assay type: ADME, organism-based
conditions: in vivo
Numbers only, in %.

CN(C(=O)c1cc2c3c(c(N)nc2cc1F)COC3)[C@@H]1CCN(c2ccc(C#N)cc2)C1: 81

# ---- query compound ----
Enquiry: Any idea what bioavailability was measured for Cc1cc2nc(N)c3c(c2cc1C(=O)N(C)[C@@H]1CCN(c2ccc(C#N)cc2)C1)COC3 ?
Return: 46.1

* * *

subject.of.test: Protein arginine N-methyltransferase 5 (Homo sapiens, UniProt O14744)
Sequence (O14744 whole entry): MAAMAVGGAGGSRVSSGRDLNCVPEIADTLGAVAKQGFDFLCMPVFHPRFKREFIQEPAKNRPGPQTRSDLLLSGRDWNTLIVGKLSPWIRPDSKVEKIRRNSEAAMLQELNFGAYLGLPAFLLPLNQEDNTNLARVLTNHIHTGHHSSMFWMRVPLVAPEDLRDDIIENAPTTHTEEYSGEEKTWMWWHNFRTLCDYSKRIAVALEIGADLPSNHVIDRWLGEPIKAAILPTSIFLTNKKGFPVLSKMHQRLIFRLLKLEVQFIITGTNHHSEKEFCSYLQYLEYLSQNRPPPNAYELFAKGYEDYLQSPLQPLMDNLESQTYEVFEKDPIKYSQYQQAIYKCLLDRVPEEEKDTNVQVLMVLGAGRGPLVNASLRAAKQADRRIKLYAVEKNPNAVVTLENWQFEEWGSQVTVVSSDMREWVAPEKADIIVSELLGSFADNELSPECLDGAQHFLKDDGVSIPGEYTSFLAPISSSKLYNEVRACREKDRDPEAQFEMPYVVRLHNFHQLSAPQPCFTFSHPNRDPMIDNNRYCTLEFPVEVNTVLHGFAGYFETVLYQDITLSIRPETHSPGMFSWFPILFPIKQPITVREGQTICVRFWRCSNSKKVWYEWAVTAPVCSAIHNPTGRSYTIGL
experiment: Inhibition of PRMT5 (unknown origin) in presence of MTA
metric: pIC50
Numbers only, as −log10 of the molar value.

Enquiry: Any idea what pIC50 was measured for CN(C(=O)c1cc2c3c(c(N)nc2cc1F)COC3)[C@@H]1CCN(c2ccc(C#N)cc2)C1 ?
Return: 8.33

* * *

experiment: Cmax in male Sprague-Dawley rat at 5 mg/kg, po or 1 mg/kg, iv measured upto 24 hrs
Format: ADME, organism-based
conditions: in vivo
metric: Cmax (ng/mL)
Answers are plain numbers, in ng/mL.

CN(C(=O)c1cc2c3c(c(N)nc2cc1F)COC3)[C@@H]1CCN(c2ccc(C#N)cc2)C1: 1020

# ---- query compound ----
Enquiry: Any idea what Cmax was measured for Cc1cc2nc(N)c3c(c2cc1C(=O)N(C)[C@@H]1CCN(c2ccc(C#N)cc2)C1)COC3 ?
Return: 496

* * *

System: HCT-116
experiment: Antiproliferative activity against MTAP deleted human HCT-116 cells assessed as inhibition of cell viability by luminescence based cell titer-glo assay
Format: functional
metric: IC50 (nM)
One number for each entry, in nM.

CN(C(=O)c1ccc2nc(N)c3c(c2c1)COC3)[C@@H]1CCN(c2ccc(-c3cnn(C)c3)cc2)C1: 211
CN(C(=O)c1ccc2nc(N)c3c(c2c1)COC3)[C@@H]1CCN(c2ccc(S(C)(=O)=O)cc2)C1: 641
CN(C(=O)c1cc2c3c(c(N)nc2cc1F)COC3)[C@@H]1CCN(c2ccc(C#N)cc2)C1: 15

# ---- query compound ----
Enquiry: Any idea what IC50 was measured for CN(C(=O)c1ccc2nc(N)c3c(c2c1)COC3)[C@H]1CCN(c2ccccc2)C1 ?
Return: 2000
